method-description: qHTS profiling of the MIPE4 collection as inhibitors of Plasmodium falciparum (HB3) proliferation (AID 743347);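 further: plate controls were DMSO vehicle wells for no effect and artemisinin wells for full effect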
reported-conditions: P. falciparum HB3 in erythrocytes, SYBR Green DNA, 72 h; at 28.5 µM (top of the series) unless noted
Starred links: 1 amine or outer side, 2 acyl side, 3 side chain; linkers in the order of their positions; H or OH if unused. Positions of bridges follow the written chain, without caps; N, C: chain ends. Non-standard residues stand in square brackets, D forms with d. Residues, ends and D or L forms follow the SMILES beside them. Chains are numbered I, II in the order given. Actinocin(9to1) = Cc1c2oc3c(C)ccc(C(=O)[*:1])c3nc-2c(C(=O)[*:2])c(N)c1=O; NMeV = CN[CH](C(=O)O)C(C)C; Sar = CNCC(=O)O
recorded-endpoint: growth, % of control (%)

{"molecule": "C[C@H](CCC(=O)O)[C@H]1CCC2C3C[C@H](O)[C@@H]4C[C@H](O)CC[C@]4(C)C3CC[C@@]21C (stereo partly drawn)", "recorded-endpoint": "growth, % of control", "reported": 103}
{"molecule": "C[C@@H]1CC[C@@]2(OC1)OC1CC3C4CC=C5CC(O)CCC5(C)C4CCC3(C)C1[C@@H]2C (stereo partly drawn)", "recorded-endpoint": "growth, % of control", "reported": 99.7}
{"molecule": "C=CC(=O)N1CCc2ccc(-n3c(=O)ccc4cnc5ccc(-c6cnn(C)c6)cc5c43)cc21", "recorded-endpoint": "growth, % of control", "reported": 4.27}
{"molecule": "Cc1c2oc3c(C)ccc(C(=O)NC4C(=O)NC(C(C)C)C(=O)N5CCCC5C(=O)N(C)CC(=O)N(C)C(C(C)C)C(=O)OC4C)c3nc-2c(C(=O)NC2C(=O)NC(C(C)C)C(=O)N3CCCC3C(=O)N(C)CC(=O)N(C)C(C(C)C)C(=O)OC2C)c(N)c1=O (stereo not drawn) (I: TVP[Sar][NMeV] / II: TVP[Sar][NMeV]; ester I:1-I:C, II:1-II:C; linker I:N-II:N via Actinocin(9to1); configuration not given here)", "recorded-endpoint": "growth, % of control", "reported": 2.3}
{"molecule": "C=C[C@@H]1CN2CCC1C[C@H]2[C@H](O)c1ccnc2ccc(OC)cc12 (stereo partly drawn)", "recorded-endpoint": "growth, % of control", "reported": 12.1}
{"molecule": "CNC(=O)c1ccc(Nc2cc(Nc3ccccc3S(=O)(=O)C(C)C)c3cc[nH]c3n2)nc1", "recorded-endpoint": "growth, % of control", "reported": 2.73}
{"molecule": "O=C(C[C@@H]1CC=CCCC(=O)O[C@H](c2ccccc2)CNC1=O)NCc1ccc(Cl)cc1", "recorded-endpoint": "growth, % of control", "reported": 54.9}
{"molecule": "CN[C@H]1[C@@H](O)[C@@H]2O[C@@H]3O[C@H](C)CC(=O)[C@]3(O)O[C@@H]2[C@@H](NC)[C@H]1O", "recorded-endpoint": "growth, % of control", "reported": 6.56}
{"molecule": "O=C(Nc1cccc(Nc2ncc(Br)c(NCCc3cnc[nH]3)n2)c1)N1CCCC1", "recorded-endpoint": "growth, % of control", "reported": 3.84}
{"molecule": "COc1cc(C(C)C)c(Oc2cnc(NC(CO)CO)nc2N)cc1I", "recorded-endpoint": "growth, % of control", "reported": 97.9}
{"molecule": "COC1=C(OC)C(=O)C(CC=C(C)CCC=C(C)CCC=C(C)CCC=C(C)CCC=C(C)CCC=C(C)CCC=C(C)CCC=C(C)CCC=C(C)CCC=C(C)C)=C(C)C1=O", "recorded-endpoint": "growth, % of control", "reported": 97.8}
{"molecule": "Nc1nc(=O)n([C@H]2C[C@H](O)[C@@H](CO)O2)cc1F", "recorded-endpoint": "growth, % of control", "reported": 107}
{"molecule": "CCc1cnn2c(NCc3ccc[n+]([O-])c3)cc(N3CCCC[C@@H]3CCO)nc12", "recorded-endpoint": "growth, % of control", "reported": 8.08}
{"molecule": "CCOC(=O)N1CCN([N+]([O-])=NOc2ccc([N+](=O)[O-])cc2[N+](=O)[O-])CC1", "recorded-endpoint": "growth, % of control", "reported": 60.8}
{"molecule": "CN[C@@H]1C[C@H]2O[C@@](C)([C@H]1OC)n1c3ccccc3c3c4c(c5c6ccccc6n2c5c31)C(=O)N[C@H]4O", "recorded-endpoint": "growth, % of control", "reported": 3.74}
{"molecule": "Cn1cc(-c2cnn3c(N)c(Br)c([C@H]4CCCNC4)nc23)cn1", "recorded-endpoint": "growth, % of control", "reported": 3.69}
{"molecule": "CCCCCCCN(CC)CCCC(O)c1ccc(NS(C)(=O)=O)cc1 (stereo not drawn)", "recorded-endpoint": "growth, % of control", "reported": 54}
{"molecule": "Nc1cccc2c1C(=O)N(C1CCC(=O)NC1=O)C2=O (stereo not drawn)", "recorded-endpoint": "growth, % of control", "reported": 49.9}
{"molecule": "CCC(C(=O)O)C1CCC(C)C(C(C)C(O)C(C)C(=O)C(CC)C2OC3(C=CC(O)[C@@]4(CC[C@](C)(C5CC[C@@](O)(CC)C(C)O5)O4)O3)C(C)CC2C)O1 (stereo partly drawn)", "recorded-endpoint": "growth, % of control", "reported": 16.9}
{"molecule": "COc1cc(C(=O)NC2CCN(C)CC2)ccc1Nc1ncc2c(n1)N(C1CCCC1)CCC(=O)N2C(C)C", "recorded-endpoint": "growth, % of control", "reported": 6.9}
{"molecule": "CCOC(=O)[C@@H](N)Cc1ccc(-c2cc(O[C@H](c3ccc(Cl)cc3-n3ccc(C)n3)C(F)(F)F)nc(N)n2)cc1", "recorded-endpoint": "growth, % of control", "reported": 15.8}
{"molecule": "CC(C)(C)[N+]([O-])=Cc1ccc(S(=O)(=O)O)cc1S(=O)(=O)O", "recorded-endpoint": "growth, % of control", "reported": 63}
{"molecule": "CCS(=O)(=O)Nc1ccc2[nH]c(O)c(C(=Nc3ccc(CN4CCCCC4)cc3)c3ccccc3)c2c1", "recorded-endpoint": "growth, % of control", "reported": 4.28}
{"molecule": "COC(=O)[C@@H]1[C@H]2C[C@@H]3c4[nH]c5ccccc5c4CCN3C[C@@H]2CC[C@@H]1O", "recorded-endpoint": "growth, % of control", "reported": 66.3}
{"molecule": "COc1ccc(C[C@@H](C)[C@@H](C)Cc2ccc(OC)c(OC)c2)cc1OC", "recorded-endpoint": "growth, % of control", "reported": 30.9}
{"molecule": "CN1[C@H]2CC(OC(=O)[C@@H](CO)c3ccccc3)C[C@H]1[C@H]1O[C@H]12 (stereo partly drawn)", "recorded-endpoint": "growth, % of control", "reported": 107}
{"molecule": "OCC(O)C(O)C(O)CO (stereo not drawn)", "recorded-endpoint": "growth, % of control", "reported": 95.9}
{"molecule": "CC(=O)OC[C@@H]1O[C@@H](n2ccc(=O)[nH]c2=O)[C@H](OC(C)=O)[C@H]1OC(C)=O", "recorded-endpoint": "growth, % of control", "reported": 250}
{"molecule": "CC(=O)ON=C1C(c2c(O)[nH]c3cc(Br)ccc23)=Nc2ccccc21", "recorded-endpoint": "growth, % of control", "reported": 2.46}
